Kindly supply the reported EC50 Rat APJ Receptor values for the records listed here.
# Test target: T1, rat APJ receptor (rat, UniProt Q9JHG3 1-377)
# T1 sequence (looked up): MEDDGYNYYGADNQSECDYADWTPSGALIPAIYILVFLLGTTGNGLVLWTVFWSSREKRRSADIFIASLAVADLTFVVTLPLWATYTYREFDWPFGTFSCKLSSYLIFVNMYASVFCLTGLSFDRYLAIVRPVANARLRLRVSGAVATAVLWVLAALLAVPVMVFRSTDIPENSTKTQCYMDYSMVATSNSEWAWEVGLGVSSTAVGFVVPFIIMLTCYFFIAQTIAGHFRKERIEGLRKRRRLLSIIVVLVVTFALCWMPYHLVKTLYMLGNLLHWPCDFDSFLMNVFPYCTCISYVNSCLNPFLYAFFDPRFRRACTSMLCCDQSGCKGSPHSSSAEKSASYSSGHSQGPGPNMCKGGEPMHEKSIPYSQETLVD
# Measurement notes: cell-based or functional assay
Non-standard residues stand in square brackets, D forms with d. Phe(4-Cl) = N[C@@H](Cc1ccc(Cl)cc1)C(=O)O; NMeL = CN[C@@H](CC(C)C)C(=O)O; Nle = CCCC[C@H](N)C(=O)O

Q. Input SDFYKRLINKAKXXRRQRPRLSHKGXFPX ({Acetyl-NH}SDFYKRLINKAK[Aeea][Aeea][hArg]rQ[hArg]Pr[NMeLeu]SHKG[Oic][pI-Phe]P[D-Bip]{COOH}) [SEQ ID NO: 94] , output reported EC50 Rat APJ Receptor.
A. 1.33 nM

Q. // Input: QRPRLSHKGPXPF ({H2}[MerPr](10K mPEG acetamide)QrP[hArg][aMeLeu]SHKGP[Nle]P[4-Cl-F]{COOH}) [SEQ ID NO: 119] . Output its EC50 Rat APJ Receptor only.
A. 141 nM

Q. Identify EC50 Rat APJ Receptor associated with the binder RLIEDICLPRWGCLWEDDXXQRPRLSHKGPXPF ({Acetyl-NH}RLIEDICLPRWGCLWEDD[Aeea][Aeea]QRP[NMeArg]LSHKGP[Nle]P[4-Cl-F]{COOH}) [SEQ ID NO: 90]
A. 0.633 nM

Q. Identify measured EC50 Rat APJ Receptor corresponding to QRPRLSHKGPXPF ({Acetyl-NH}Q[hArg]P[NMeArg][aMeLeu]SHKGP[Nle]P[4-Cl-F]{COOH}) [SEQ ID NO: 71]
A. 2.75 nM

Q. Input Ac-RQRPR[NMeL]SHKGP[Nle]P[Phe(4-Cl)]-OH (SMILES CCCC[C@H](NC(=O)[C@@H]1CCCN1C(=O)CNC(=O)[C@H](CCCCN)NC(=O)[C@H](Cc1c[nH]cn1)NC(=O)[C@H](CO)NC(=O)[C@H](CC(C)C)N(C)C(=O)[C@H](CCCNC(=N)N)NC(=O)[C@@H]1CCCN1C(=O)[C@H](CCCNC(=N)N)NC(=O)[C@H](CCC(N)=O)NC(=O)[C@H](CCCNC(=N)N)NC(C)=O)C(=O)N1CCC[C@H]1C(=O)N[C@@H](Cc1ccc(Cl)cc1)C(=O)O) [SEQ ID NO: 64] , output reported EC50 Rat APJ Receptor.
A. 0.411 nM
